Origin of the recorded values: patent US10383859B2

Tested on: A549 cells
assay summary: Cell migration assay (24-well transwell, laminin)
Type: cell-based, human
condition parameters: laminin 10 μg/mL in lower well, test compounds 0.39˜100 μM, 6 hours, migrated cells counted, read-out: Inhibitory activity against cell migration
The entries below are paired with their reported IC50.

molecule="COc1cccc(CCN(Cc2ccc(C(=O)O)cc2)c2nc3cccc(F)c3s2)c1 [Example 7]" experimental_value="1 to 10 µM"

We now examine a further molecule.
GET /values?readout=IC50&item= COc1cccc(CCN(Cc2ccc(C(=O)O)cc2)c2nc3cccc(F)c3s2)c1 [Example 42]
> 10 µM

====

System: A549 cells
assay summary: Cell migration assay (24-well transwell, laminin)
Format: cell-based, human
condition parameters: Homo sapiens, A549, 6 h, laminin 10 μg/mL in lower well, test compounds 0.39˜100 μM, migrated cells counted, read-out: Inhibitory activity against cell migration
The entries below are paired with their reported IC50.

Sample records with IC50:
molecule=COc1ccc(CCN(Cc2ccc(C(=O)O)cc2)c2nc3ccc(F)c(F)c3s2)cc1 experimental_value="< 1 µM"
molecule="CCC(C)Oc1ccc(CCN(Cc2ccc(C(=O)O)cc2)c2nc3cccc(F)c3s2)cc1 (stereo not shown)" experimental_value="> 10 µM"
molecule=CSc1ccc(CCN(Cc2ccc(C(=O)O)cc2)c2nc3cccc(F)c3s2)cc1 experimental_value="< 1 µM"
molecule=COc1ccc(CCN(Cc2ccc(C(=O)O)cc2)c2nc3ccc(Br)cc3s2)cc1 experimental_value="> 10 µM"
molecule=O=C(O)c1ccc(CN(CCc2ccc(F)cc2F)c2nc3cccc(F)c3s2)cc1 experimental_value="> 10 µM"
molecule="COc1ccc(CCN(c2nc3ccc(Br)cc3s2)C(C)c2ccc(C(=O)O)cc2)cc1 (stereo not shown)" experimental_value="> 10 µM"
molecule=CCCOc1ccc(CCN(Cc2ccc(C(=O)O)cc2)c2nc3cccc(F)c3s2)cc1 experimental_value="1 to 10 µM"
molecule=COc1ccc(CCN(Cc2ccc(C(=O)O)cc2)c2nc3ccc(N)cc3s2)cc1 experimental_value="< 1 µM"

Returns the measured IC50 for the input molecule. Input: CCc1ccc(CCN(Cc2ccc(C(=O)O)cc2)c2nc3cccc(F)c3s2)cc1
< 1 µM

What value of measured IC50 is listed for COc1ccc(CCN(Cc2ccc(C(=O)O)cc2)c2nc3cccc(F)c3s2)c(C)c1 ?
< 1 µM

====

pIC50 overview
System: A549 cells
assay summary: Cell migration assay (24-well transwell, laminin)
Type: cell-based, human
condition parameters: Homo sapiens, A549, 6 h, laminin 10 μg/mL in lower well, test compounds 0.39˜100 μM, migrated cells counted, read-out: Inhibitory activity against cell migration
pIC50: −log10 of the molar value.

See these solved cases before continuing.
molecule="COc1ccc(CCN(c2nc3cccc(F)c3s2)C(C)c2ccc(C(=O)O)cc2)c(C)c1C (stereo not drawn)" experimental_value="> 6.00"
molecule=O=C(O)c1ccc(CN(CCc2ccc(F)cc2)c2nc3cccc(F)c3s2)cc1 experimental_value="< 5.00"
molecule=COc1ccc(CCN(Cc2ccc(C(=O)O)c(O)c2)c2nc3cccc(F)c3s2)cc1 experimental_value="> 6.00"
molecule="COc1ccc(CCN(c2nc3cccc(C(F)(F)F)c3s2)C(C)c2ccc(C(=O)O)cc2)cc1 (stereo not drawn)" experimental_value="< 5.00"
molecule=COc1cc(C)c(CCN(Cc2ccc(C(=O)O)cc2)c2nc3cccc(F)c3s2)cc1C experimental_value="> 6.00"
molecule="COc1ccc(CCN(c2nc3cccc(Cl)c3s2)C(C)c2ccc(C(=O)O)cc2)cc1 (stereo not drawn)" experimental_value="> 6.00"
molecule="COc1ccc(CCN(c2nc3ccc(C)c(F)c3s2)C(C)c2ccc(C(=O)O)cc2)cc1 (stereo not drawn)" experimental_value="< 5.00"
molecule=COc1ccc(CCN(Cc2ccc(C(=O)O)cc2)c2nc3c(F)cc(F)cc3s2)cc1 experimental_value="> 6.00"

Given the entry COc1ccc(CCN(Cc2ccc(C(=O)O)cc2)c2nc3cc(Cl)ccc3s2)cc1 , report its measured pIC50.
> 6.00

Look at this molecule and give its reported pIC50. COc1cc(C)c(CCN(c2nc3cccc(F)c3s2)C(C)c2ccc(C(=O)O)cc2)cc1C(C)C (stereo not drawn)
< 5.00

// pIC50 lookup, key: CCNc1ccc(CCN(Cc2ccc(C(=O)O)cc2)c2nc3cccc(F)c3s2)cc1
5.00 to 6.00

Param item = COc1ccc(CCN(c2nc3cc(F)c(F)c(F)c3s2)C(C)c2ccc(C(=O)O)cc2)cc1 (stereo not drawn) ; retrieve measured pIC50.
< 5.00

Would you mind telling me what pIC50 value was observed for CNc1ccc(CCN(Cc2ccc(C(=O)O)cc2)c2nc3cccc(F)c3s2)cc1 ?
> 6.00

If you can, please state the reported pIC50 value of O=C(O)c1ccc(CN(CCc2ccc(Cl)cc2)c2nc3cccc(F)c3s2)cc1 .
5.00 to 6.00

Reported pIC50 for COc1ccc(CCN(Cc2ccc(C(=O)O)cc2)c2nc3cccc(F)c3s2)cc1F : what is it?
> 6.00

====

System: A549 cells
assay summary: Cell migration assay (24-well transwell, laminin)
Format: cell-based, human
condition parameters: Homo sapiens, A549, 6 h, laminin 10 μg/mL in lower well, test compounds 0.39˜100 μM, migrated cells counted, read-out: Inhibitory activity against cell migration
observable: IC50

Solved cases (4 shown):
compound=CC(C)Oc1ccc(CCN(Cc2ccc(C(=O)O)cc2)c2nc3cccc(F)c3s2)cc1 observable=IC50 experimental_value="1 to 10 µM"
compound=CCOc1ccc(CCN(Cc2ccc(C(=O)O)cc2)c2nc3cccc(F)c3s2)cc1 observable=IC50 experimental_value="< 1 µM"
compound=Cc1ccc(CCN(Cc2ccc(C(=O)O)cc2)c2nc3cccc(F)c3s2)cc1 observable=IC50 experimental_value="< 1 µM"
compound=COc1ccc(CCN(Cc2ccc(C(=O)O)cc2)c2nc3cc(F)cc(F)c3s2)cc1 observable=IC50 experimental_value="< 1 µM"

Now look at this one.
Given COc1ccc(CCN(c2nc3cc(C)ccc3s2)C(C)c2ccc(C(=O)O)cc2)cc1 (stereo not drawn) , state its recorded IC50.
> 10 µM

====

Tested on: A549 cells
assay summary: Cell migration assay (24-well transwell, laminin)
Format: cell-based, human
condition parameters: Homo sapiens, A549, 6 h, laminin 10 μg/mL in lower well, test compounds 0.39˜100 μM, migrated cells counted, read-out: Inhibitory activity against cell migration
pIC50: −log10 of the molar value.
Each record here notes measured pIC50.

// worked examples, pIC50 included
molecule=COc1ccc(CCN(Cc2ccc(C(=O)O)cc2)c2nc3cccc(N)c3s2)cc1 observable=pIC50 experimental_value="> 6.00"
molecule=COc1ccc(CCN(Cc2ccc(C(=O)O)cc2)c2nc3cccc([N+](=O)[O-])c3s2)cc1 observable=pIC50 experimental_value="> 6.00"
molecule=CSc1cccc(CCN(Cc2ccc(C(=O)O)cc2)c2nc3cccc(F)c3s2)c1 observable=pIC50 experimental_value="> 6.00"
molecule="COc1cc(F)c(CCN(c2nc3cccc(F)c3s2)C(C)c2ccc(C(=O)O)cc2)cc1F (stereo not shown)" observable=pIC50 experimental_value="> 6.00"
molecule=O=C(O)c1ccc(CN(CCc2cccc(F)c2F)c2nc3cccc(F)c3s2)cc1 observable=pIC50 experimental_value="< 5.00"
molecule=COc1ccc(CCN(Cc2ccc(C(=O)O)cc2)c2nc3cccc(F)c3s2)c(OC)c1 observable=pIC50 experimental_value="5.00 to 6.00"
molecule=COc1ccc(CCN(Cc2ccc(C(=O)O)cc2)c2nc3cccc(F)c3s2)cc1Cl observable=pIC50 experimental_value="> 6.00"
molecule=COc1ccc(CCN(Cc2ccc(C(=O)O)cc2)c2nc3cccc(C)c3s2)cc1 observable=pIC50 experimental_value="< 5.00"

What value of pIC50 on A549 cells does COc1ccc(CCN(Cc2ccc(C(=O)O)cc2)c2nc3cccc(Cl)c3s2)cc1 have?
> 6.00

Fill in the recorded pIC50 for this molecule, with A549 cells as test system: CCC(c1ccc(C(=O)O)cc1)N(CCc1c(F)cc(OC)cc1F)c1nc2cccc(F)c2s1 (stereo not shown)
< 5.00

====

Tested on: A549 cells
assay summary: Cell migration assay (24-well transwell, laminin)
Assay type: cell-based, human
condition parameters: Homo sapiens, A549, 6 h, laminin 10 μg/mL in lower well, test compounds 0.39˜100 μM, migrated cells counted, read-out: Inhibitory activity against cell migration
pIC50: −log10 of the molar value.
We begin with a simple list: items and their reported pIC50.

Some entries whose results are on file:
molecule="COc1ccc(CCN(Cc2ccc(C(=O)O)cc2)c2nc3cc(F)c(F)c(F)c3s2)cc1 [Example 87]" experimental_value="> 6.00"
molecule="CCC(c1ccc(C(=O)O)cc1)N(CCc1cc(F)c(OC)cc1F)c1nc2cccc(F)c2s1 (stereo not drawn) [Example 69]" experimental_value="< 5.00"

Reported pIC50 for A549 cells, given COc1ccc(CCN(Cc2ccc(C(=O)O)cc2Cl)c2nc3cccc(F)c3s2)cc1 [Example 78] ?
> 6.00
